MEASUREMENT_LABEL: melting point

Field: example entries. Status: answers known.
# LINE_NOTATION, MEASUREMENT
rows = [
    ("CCOC[C@H]1O[C@@H](n2cnc3c(N)nc(Cl)nc32)[C@H](O)[C@@H]1O", "117 to 119 °C"),
    ("COC[C@H]1O[C@@H](n2cnc3c(N)nc(Cl)nc32)[C@H](O)[C@@H]1O", "200 to 202 °C"),
    ("COC[C@H]1O[C@@H](n2cnc3c(N)ncnc32)[C@H](O)[C@@H]1O", "112 to 114 °C"),
    ("CCOC[C@H]1O[C@@H](n2cnc3c(N)ncnc32)[C@H](O)[C@@H]1O", "110 to 112 °C"),
]

Qu. // lookup melting point for Nc1nc(Cl)nc2c1ncn2[C@@H]1O[C@H](COC2CC2)[C@@H](O)[C@H]1O
Ans. 122 to 124 °C
